# TARGET_ENTITY: TRIM33β N1039F (Homo sapiens, UniProt Q9UPN9, N1039F)
# Construct: The TRIM33β cassette (residues 888–1127) was expressed; made in house; host or cells: E. coli BL21 (DE3) Gold
# Sequence (Q9UPN9 888-1110 isoform Q9UPN9-2 N1039F): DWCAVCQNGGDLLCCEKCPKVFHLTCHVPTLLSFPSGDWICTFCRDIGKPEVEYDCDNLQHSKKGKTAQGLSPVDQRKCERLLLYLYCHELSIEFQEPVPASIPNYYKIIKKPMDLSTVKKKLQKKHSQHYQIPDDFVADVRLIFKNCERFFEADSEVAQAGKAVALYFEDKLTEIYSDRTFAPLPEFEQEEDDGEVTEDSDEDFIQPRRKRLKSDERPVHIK
# MEASUREMENT_DESCRIPTION: Qualitative WaterLOGSY binding
# Design: key: ✓: √ is assigned to compounds that showed binding; ? is assigned when the result was ambiguous; × is assigned when no-binding was observed
# REPORTED_CONDITIONS: 500 µM compound, 20 µM protein
EXPERIMENTAL_READOUT: WaterLOGSY binding TRIM33β N1039F

{"COMPOUND": "O=C(CN1CCOC(c2cncc(-c3cccc(F)c3)n2)C1)NCc1ccccn1 (stereo not shown)", "ENDPOINT_VALUE": "×"}
{"COMPOUND": "Cn1c(=O)n(C)c2cc(CNCCc3ccc(S(N)(=O)=O)cc3)ccc21", "ENDPOINT_VALUE": "?"}
{"COMPOUND": "O=C(Nc1ccccc1)Nc1ccc2cccnc2c1", "ENDPOINT_VALUE": "✓"}
{"COMPOUND": "Cc1cc2c(NC(=O)Nc3ccccc3)cccc2nn1", "ENDPOINT_VALUE": "✓"}

----------
# TARGET_ENTITY: TRIM24 N980F (Homo sapiens, UniProt O15164, N980F)
# Sequence (O15164 825-1007 N980F limits assumed): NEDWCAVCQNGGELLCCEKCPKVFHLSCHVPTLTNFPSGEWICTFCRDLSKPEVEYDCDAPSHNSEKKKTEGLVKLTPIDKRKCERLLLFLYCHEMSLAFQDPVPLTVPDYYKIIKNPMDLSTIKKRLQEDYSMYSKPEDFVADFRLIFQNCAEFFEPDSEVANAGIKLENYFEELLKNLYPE
# MEASUREMENT_DESCRIPTION: Qualitative WaterLOGSY binding
# Design: key: ✓: √ is assigned to compounds that showed binding; ? is assigned when the result was ambiguous; × is assigned when no-binding was observed
# REPORTED_CONDITIONS: 500 µM compound, 20 µM protein

{"MOLECULE": "Cn1c(=O)n(C)c2cc(CNCCc3ccc(S(N)(=O)=O)cc3)ccc21", "WaterLOGSY binding TRIM24 N980F": "×"}
{"MOLECULE": "Cc1cc2c(NC(=O)Nc3ccccc3)cccc2nn1", "WaterLOGSY binding TRIM24 N980F": "✓"}
{"MOLECULE": "O=C(CN1CCOC(c2cncc(-c3cccc(F)c3)n2)C1)NCc1ccccn1 (stereo not shown)", "WaterLOGSY binding TRIM24 N980F": "×"}
{"MOLECULE": "O=C(Nc1ccccc1)Nc1ccc2cccnc2c1", "WaterLOGSY binding TRIM24 N980F": "✓"}

----------
// reported pIC50 for each item listed
# TARGET_ENTITY: UniProt:Q9UPN9
# MEASUREMENT_DESCRIPTION: AlphaScreen dose-response displacement of biotinylated H3 peptide
# REPORTED_CONDITIONS: peptide in assay H31-27K18Ac (BRD)
pIC50: −log10 of the molar value.
EXPERIMENTAL_READOUT: pIC50

{"COMPOUND": "Cc1nc[nH]c1-c1nc2ccccn2c1NC1CCCCC1 [Compound 5]", "TARGET_ENTITY": "UniProt:Q9UPN9", "VALUE_OPERATOR": "=", "ENDPOINT_VALUE": 5.50}
{"COMPOUND": "COc1ccc(Nc2c(-c3[nH]cnc3C)nc3ccc(Br)cn23)cc1 [Compound 3]", "TARGET_ENTITY": "UniProt:Q9UPN9", "VALUE_OPERATOR": "=", "ENDPOINT_VALUE": 5.83}
{"COMPOUND": "Cc1nc[nH]c1-c1nc2ccccn2c1NCCN1CCOCC1 [Compound 4]", "TARGET_ENTITY": "UniProt:Q9UPN9", "VALUE_OPERATOR": "=", "ENDPOINT_VALUE": 4.26}
{"COMPOUND": "CC(C)(C)Nc1c(-c2c[nH]c3ncccc23)nc2ccccn12 [Compound 7]", "TARGET_ENTITY": "UniProt:Q9UPN9", "VALUE_OPERATOR": "<", "ENDPOINT_VALUE": 3.60}
{"COMPOUND": "COC(=O)c1ccc2nc(-c3c[nH]c(C)n3)c(NC3CCCCC3)n2c1 [Compound 6]", "TARGET_ENTITY": "UniProt:Q9UPN9", "VALUE_OPERATOR": "=", "ENDPOINT_VALUE": 5.10}
